# System: T-47D breast
# assayComment: NCI-60 one-dose screen, 48 h
# testParameters: 10 µM unless noted
This is part of a sample that, as a whole, favours compounds with a hit. Of some 83,000 tested, about 20% had one in any assay. Calls of active or inactive are those of the source. How the source made its calls: active means growth percent below 10; inactive means the rest.
Lab note: assign the record to one of active, inactive

Worked examples, 5 compounds total:
{"columns": ["compound", "studyTarget", "assignedCategory"],
 "data": [
  ["CC(O)CNC(Cc1ccccc1)c1ccc2c(c1)OCO2 (configuration not stated)", "T-47D breast", "inactive"],
  ["COc1ccc(-c2cc(C(=O)N3N=C(c4ccc(N)cc4)CC3c3ccc(Cl)cc3)c3cc(OC)ccc3n2)cc1 (configuration not stated)", "T-47D breast", "inactive"],
  ["Cc1nc(N/N=C/c2cn(-c3ccccc3)nc2-c2cc3ccccc3oc2=O)sc1N=Nc1ccccc1", "T-47D breast", "inactive"],
  ["O=c1cc(-c2ccccc2)nc(SCc2nc3cc(Cl)c(Cl)cc3[nH]2)[nH]1", "T-47D breast", "inactive"],
  ["C=CCN=c1sc(-c2ccc3ccccc3c2)cn1NC(=O)c1cc2ccc1CCc1ccc(cc1)CC2", "T-47D breast", "inactive"]
]}

Asked: What was the test verdict on C#CCOc1cccc(Nc2ncnc3c2ncn3C2CCN(C(=O)CCl)C2)c1 (configuration not stated) ?
Given back: active

Asked: What was the test verdict on Cc1nc2ccccc2c(/C=C/c2ccc(F)cc2)c1C(=O)/C=C/c1ccccc1 ?
Given back: inactive

Asked: What was the test verdict on CCN(CC)CCOc1ccc2c(-c3ccccc3)c(-c3ccc(OC)cc3)c(=O)oc2c1 ?
Given back: inactive

Asked: What was the test verdict on COc1cc(/C=N/NC(=O)c2ccc(-n3cc(-c4ccccc4)nn3)cc2)cc(OC)c1OC ?
Given back: inactive

Asked: What was the test verdict on CC(C)(C)c1ccc(S(=O)(=O)Oc2ccc(-c3sc4cc(OS(=O)(=O)c5ccc(C(C)(C)C)cc5)ccc4c3C(=O)c3ccc(OCCN4CCCCC4)cc3)cc2)cc1 ?
Given back: inactive

Asked: What was the test verdict on CCNC(=O)N1CCc2c(Br)c3c(c(OC)c2C1Cc1ccc(OC)cc1)OCO3 (configuration not stated) ?
Given back: inactive

Asked: What was the test verdict on Oc1nc(NCc2ccccc2)sc1/C=C1\C=Nc2ncccc21 ?
Given back: inactive

* * *

# Test system: SK-MEL-2 melanoma
# assayComment: NCI-60 one-dose screen, 48 h (100 = growth as untreated, 0 = no growth, -100 = all killed)
# testParameters: 10 µM unless noted
About 83,000 compounds went through this panel and 20% of them were active in at least one assay; those are over-represented in the sample as a whole.
Tag: criterion met if measured growth is not below 80%, criterion not met if it is.

Worked examples, 2 compounds total:
{"columns": ["compound", "assignedCategory"],
 "data": [
  ["COc1cc(Cc2cc(OC)c(O)c(OC)c2)cc(OC)c1O", "criterion not met"],
  ["CSc1ccc2c3c(n(C[C@H](O)CO)c(=O)c2c1)-c1ccccc1C3=O", "criterion met"]
]}

Asked: growth >= 80% for COc1ccc(C=Nc2c(C(=O)Nc3cccc(Cl)c3C)sc3nc(C)c(C(=O)/C=C/c4ccc(OC)cc4)cc23)cc1 ?
Given back: criterion not met

Asked: growth >= 80% for c1ccc2cc(Cn3cc(CSc4nc5ccccc5s4)nn3)ccc2c1 ?
Given back: criterion met

Asked: growth >= 80% for CCCc1cc(=O)oc2c(C(=O)CC(C)C)c(O)c(CC=C(C)C)c(O)c12 ?
Given back: criterion not met

Asked: growth >= 80% for NS(=O)(=O)c1ccc(C(=O)NN2C(=O)c3ccccc3C2=O)cc1 ?
Given back: criterion met

Asked: growth >= 80% for N#CSc1c[nH]c2ccc(/C=C/C(=O)/C=C(O)/C=C/c3ccc4[nH]cc(SC#N)c4c3)cc12 ?
Given back: criterion not met

* * *

# System: A498 renal
# assayComment: NCI-60 one-dose screen, 48 h
# testParameters: 10 µM unless noted
About 83,000 compounds went through this panel and 20% of them were active in at least one assay; those are over-represented in the sample as a whole. Active and inactive are the calls of the source. The calls were made as follows: active = growth percent below 10; inactive = the rest.
Lab note: assign the record to one of 1 (yes) (active), 0 (no) (inactive)

Worked examples, 4 molecules total:
{"columns": ["molecule", "studyTarget", "assignedCategory"],
 "data": [
  ["COc1ccc(C2[C@@H](Cl)C(=O)N2c2cc(OC)c(OC)c(OC)c2)cc1Cl (stereo not given in full)", "A498 renal", "1 (yes)"],
  ["Nc1c(C(=O)Nc2cccc3ncccc23)sc2nc3c(cc12)CN(Cc1ccccc1)CC3", "A498 renal", "0 (no)"],
  ["COc1ccc2c(c1)c(-c1nc(-c3ccc4ccccc4c3)cs1)cn2C", "A498 renal", "0 (no)"],
  ["O=c1cc(C(F)(F)F)c2cc(-c3cc4ccccc4c(=O)o3)c(O)cc2o1", "A498 renal", "0 (no)"]
]}

Read the next record carefully.
Asked: What was the test verdict on c1cc(OCCN2CCCCCC2)ccc1CNc1ccc2nc(CCC3CCCCC3)[nH]c2c1 ?
Given back: 0 (no)

* * *

# Test system: A549/ATCC NSCLC
# assayComment: NCI-60 one-dose screen, 48 h (100 = growth as untreated, 0 = no growth, -100 = all killed)
# testParameters: 10 µM unless noted
About 83,000 compounds went through this panel and 20% of them were active in at least one assay; those are over-represented in the sample as a whole.
# growth listing for each entry below
Field format: number, assumed %, no unit text.

In the examples that follow, each entry is paired with its recorded growth.
{"columns": ["compound", "quantityUnit", "growth"],
 "data": [
  ["CNCC[C@H](Oc1cccc2ccccc12)c1cccs1", "%", 96.4],
  ["CCn1cc(C(=O)N/N=C/c2cccc(F)c2)c(=O)c2cc(F)c(N3CCNC(C)C3)c(F)c21 (stereo not drawn)", "%", -66.6],
  ["Cc1ccc2c(c1)sc1nc(-c3c[nH]c4ccccc34)c(Nc3ccccc3)n12", "%", 101],
  ["O=S(=O)(Nc1ccc2ccccc2c1)c1ccc(-c2cnc(C3CC3)o2)cc1", "%", 37.6],
  ["CC(C)Cc1nc(Nc2ccccc2)[nH]c(=O)c1C#N", "%", 57.3]
]}

Pending compound:
A549/ATCC NSCLC assay, compound COc1ccc2c(O)c(/C=C3\N=Nc4ncccc43)oc2c1C[C@@H]1CCNC[C@H]1F , recorded growth = -24.1

* * *

# growth listing for each entry below
# Tested on: A498 renal
# assayComment: NCI-60 one-dose screen, 48 h (100 = growth as untreated, 0 = no growth, -100 = all killed)
# testParameters: 10 µM unless noted
The panel holds about 83,000 compounds, 20% with a hit somewhere; the sample as a whole holds those more often.
Field format: number, assumed %, no unit text.

{"columns": ["smilesInput", "growth (%)"],
 "data": [
  ["Cc1ccc2nc(-c3ccc(C(=O)N/N=C/c4ccc([N+](=O)[O-])cc4)cc3)[nH]c2c1", 82.8],
  ["COCCn1cc(-c2nc(-c3cc4cccnc4n3C)cs2)c2ccccc21", 33.2],
  ["COc1cccc(-c2cn3nc(-c4cn(C)c5ccccc45)sc3n2)c1", 87.5],
  ["O=C(Nc1ccc(Nc2ccncc2)cc1)c1ccc(Nc2ccnc3ccc([N+](=O)[O-])cc23)cc1", 130],
  ["CCOC(=O)C/C(=N\\Nc1cc(=O)[nH]c2ccc(OC)cc12)C(=O)OCC", 106]
]}

The reported growth of the compound C#CCOc1cccc(Nc2ncnc3cc(NC(=O)CCl)ccc23)c1 was -25.6

The reported growth of the compound COc1ccc(N/N=C/c2cn(-c3ccc(C(=O)O)cc3)nc2-c2cc3ccccc3oc2=O)cc1 was 125

The reported growth of the compound O=c1ccc2ccc(OCCN3CCCCC3)cc2o1 was 85

The reported growth of the compound O=S(=O)(Nc1cc(Sc2nc3ccccc3s2)c(O)c2ccccc12)c1ccc2ccccc2c1 was 96.9

The reported growth of the compound CN1C(=O)/C(=C/c2ccc(C(=O)Nc3ncc(Cc4cccc(C(F)(F)F)c4)s3)cc2)SC1=S was 35.6

* * *

# System: RXF 393 renal
# assayComment: NCI-60 one-dose screen, 48 h (100 = growth as untreated, 0 = no growth, -100 = all killed)
# testParameters: 10 µM unless noted
Compounds without any hit were thinned out: in the full panel of roughly 83,000, 20% have a hit.
observedProperty: growth (%)
Field format: number, assumed %, no unit text.

{"columns": ["compound", "measuredNumber"],
 "data": [
  ["COc1ccc(N=C2NN=C(c3c[nH]c4ccccc34)CS2)cc1OC", 68.6],
  ["COc1cc(C=Nc2oc(-c3ccccc3)c(-c3ccccc3)c2C#N)cc(CN2CCCC2)c1O", 111],
  ["O=C(Nc1cccnc1Nc1ccc(Cl)cc1)c1cn(Cc2cccc(Oc3ccccc3)c2)nn1", 44.1]
]}

The reported growth of the compound CC(C)n1c2ccc(Br)cc2c2c3c(c4c5ccccc5ccc4c21)C(=O)NC3=O was 98.5

The reported growth of the compound Cc1ccc(O)c(NC(=O)c2cccc(Nc3ccnc(C(F)(F)F)c3)c2)c1 was 91.2

The reported growth of the compound CC(=O)N1N=C(c2ccc(Nc3nc(Nc4ccc(F)cc4)nc(Nc4ccc(F)cc4)n3)cc2)CC1c1ccc(N(C)C)cc1 (configuration not stated) was 9.66

The reported growth of the compound CCCCCCCCn1ccc2cc(NC(=O)CN=[N+]=[N-])ccc21 was 104
